target_or_system: EGFR (Human), P00533 [Inhibition of EGFR Dependent Proliferation of HCC827(.Delta.746-750) cells]
Sequence (P00533 whole entry, looked up, stated change not applied): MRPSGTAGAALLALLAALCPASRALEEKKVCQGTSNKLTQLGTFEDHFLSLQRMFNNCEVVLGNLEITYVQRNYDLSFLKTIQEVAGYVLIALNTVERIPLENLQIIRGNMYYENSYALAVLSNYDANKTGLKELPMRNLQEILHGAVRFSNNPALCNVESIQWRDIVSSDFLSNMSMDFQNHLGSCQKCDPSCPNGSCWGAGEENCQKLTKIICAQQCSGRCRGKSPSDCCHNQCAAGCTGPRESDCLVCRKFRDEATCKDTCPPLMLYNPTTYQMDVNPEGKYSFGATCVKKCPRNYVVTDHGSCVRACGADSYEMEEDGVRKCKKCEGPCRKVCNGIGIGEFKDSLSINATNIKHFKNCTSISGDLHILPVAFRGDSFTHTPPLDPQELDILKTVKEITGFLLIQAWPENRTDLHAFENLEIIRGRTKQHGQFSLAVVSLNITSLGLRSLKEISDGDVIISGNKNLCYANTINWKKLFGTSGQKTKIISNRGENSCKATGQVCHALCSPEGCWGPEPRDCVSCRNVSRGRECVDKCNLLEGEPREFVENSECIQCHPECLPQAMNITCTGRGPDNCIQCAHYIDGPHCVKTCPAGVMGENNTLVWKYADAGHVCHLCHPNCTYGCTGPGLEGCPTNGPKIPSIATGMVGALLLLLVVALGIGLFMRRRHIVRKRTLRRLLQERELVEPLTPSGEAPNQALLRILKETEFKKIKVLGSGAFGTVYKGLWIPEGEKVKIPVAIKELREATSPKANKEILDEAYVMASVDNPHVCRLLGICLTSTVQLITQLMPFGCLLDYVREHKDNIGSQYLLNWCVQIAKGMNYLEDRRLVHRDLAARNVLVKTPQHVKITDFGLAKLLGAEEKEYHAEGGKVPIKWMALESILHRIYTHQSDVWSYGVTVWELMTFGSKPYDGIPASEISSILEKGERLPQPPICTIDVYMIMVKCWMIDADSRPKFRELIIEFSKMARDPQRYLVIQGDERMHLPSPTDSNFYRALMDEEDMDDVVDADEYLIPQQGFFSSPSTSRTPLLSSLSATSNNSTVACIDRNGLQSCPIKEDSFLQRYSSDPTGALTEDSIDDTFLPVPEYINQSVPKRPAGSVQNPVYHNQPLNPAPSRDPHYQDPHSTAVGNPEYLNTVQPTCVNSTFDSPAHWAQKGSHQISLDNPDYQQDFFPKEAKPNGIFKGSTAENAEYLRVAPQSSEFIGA
assay_overview: Cell-Based Assay
Quick reference for IC50 among some compounds
Quick reminder: number only, in nM, skip the unit.

>  <structure_notation>
C/C=C/C(=O)Nc1cccc(-n2c(=O)cc(C)c3cnc(Nc4ccc(N(C)CCN(C)C)cc4OC)nc32)c1

>  <IC50, nM>
1370

$$$$

Query string: // returns reported IC50 for input C=CC(=O)Nc1cccc(-n2c(=O)cc(C)c3cnc(Nc4ccc(N(C)CCN(C)C)cc4Cl)nc32)c1
Result string: 21

Query string: GET /values?readout=IC50&item= C=CC(=O)Nc1cccc(-n2c(=O)cc(C)c3cnc(Nc4ccc(N(C)CCN(C)C)cc4)nc32)c1
Result string: 23

Query string: # IC50 lookup, item C=CC(=O)Nc1cccc(-n2c(=O)c(Cc3ccccc3)cc3cnc(Nc4ccc(N5CCN(C)CC5)cc4OC)nc32)c1
Result string: 18

Query string: Look at this compound and give its reported IC50. C=CC(=O)Nc1cccc(-n2c(=O)cc(C)c3cnc(Nc4cnn(C)c4)nc32)c1
Result string: 77

Query string: So what's the measured IC50 for this one? C=CC(=O)Nc1cccc(-n2c(=O)c(OC)c(C)c3cnc(Nc4ccc(N5CCN(C)CC5)cc4OC)nc32)c1
Result string: 41

Query string: Fill in the blank: the reported IC50 of C=CC(=O)Nc1cccc(-n2c(=O)cc(C)c3cnc(Nc4ccc(N5CCN(C)CC5)c(F)c4)nc32)c1 is ____.
Result string: 86
